- Tested on: Escherichia coli
- ASSAY NOTES: Growth inhibition of Escherichia coli DH5[alpha] at 200 uM incubated for 16 hrs
- Assay type: functional
- MEASUREMENT SETUP: read-out: GI
Mark condition met for reported inhibition of growth at 200 µM of 10% or greater; mark condition not met for anything smaller.

>>> label("COc1cc(OC)c2c(-c3ccc(Cl)cc3)c(C(=O)N3CCOCC3)[nH]c2c1")
"condition met"
>>> label("CCOC(=O)CNC(=O)C(=O)c1[nH]c2cc(OC)cc(OC)c2c1-c1ccc(Cl)cc1")
"condition met"
>>> label("COc1cc(OC)c2c(C)c(C(=O)C(=O)N3CCN(Cc4ccccc4)CC3)[nH]c2c1")
"condition met"
>>> label("COc1cc(OC)c2c(-c3ccc(Br)cc3)c[nH]c2c1C(=O)Nc1ccc(C)cc1")
"condition met"
>>> label("COc1cc(OC)c2c(-c3ccc(Br)cc3)c[nH]c2c1C(=O)C(=O)N1CCCCC1")
"condition met"
>>> label("O=C(C(=O)N1CCN(Cc2ccccc2)CC1)c1c[nH]c2ccccc12")
"condition not met"
>>> label("COc1cc(OC)c2c(-c3ccc(Br)cc3)c[nH]c2c1C(=O)Nc1ccccc1")
"condition met"
>>> label("COc1cc(OC)c2c(-c3ccc(Br)cc3)c(C(=O)C(=O)N3CCCCC3)[nH]c2c1")
"condition not met"
>>> label("COc1cc(OC)c2c(-c3ccc(Br)cc3)c[nH]c2c1C(=O)NNc1ccccc1")
"condition met"

###

- ASSAY NOTES: Inhibition of interaction of RNA polymerase beta' subunit CH-region and region 2.2 of RNA polymerase sigma factor RpoD/RNA polymerase sigma factor sigA (unknown origin) at 15 uM […] followed by incubation at room temperature for 1 hr by ELISA method
The source made the active and inactive calls. The rule behind the calls is not given here.
ATTRIBUTE MEASURED: inhibition

>>> result("COc1cc(OC)c2c(-c3ccc(Br)cc3)c[nH]c2c1C(=O)C(=O)N1CCOCC1")
"31%"
>>> result("COc1cc(OC)c2c(C)c(C)[nH]c2c1C(=O)C(=O)N1CCCCC1")
"39%"
>>> result("COc1cc(OC)c2c(C)c(C(=O)C(=O)N3CCN(C)CC3)[nH]c2c1")
"44%"
>>> result("COc1cc(OC)c2c(-c3ccc(Br)cc3)c[nH]c2c1C(=O)C(=O)N1CCCCC1")
"32%"
>>> result("COc1cc(OC)c2c(-c3ccc(Cl)cc3)c(C(=O)C(=O)N3CCOCC3)[nH]c2c1")
"27%"
>>> result("COc1cc(OC)c2c(-c3ccc(Br)cc3)c[nH]c2c1C(=O)NNc1ccccc1")
"44%"
>>> result("COc1cc(OC)c2c(C)c(C)[nH]c2c1C(=O)C(=O)N1CCN(c2ccccn2)CC1")
"27%"
>>> result("COc1cc(OC)c2c(-c3ccc(Cl)cc3)c(C(=O)C(=O)N3CCCCC3)[nH]c2c1")
"inactive"
>>> result("O=C(C(=O)N1CCN(c2ccccn2)CC1)c1c[nH]c2ccccc12")
"27%"
>>> result("COc1cc(OC)c2c(-c3ccc(Br)cc3)c(C(=O)C(=O)N3CCCCC3)[nH]c2c1")
"39%"
>>> result("COc1cc(OC)c2c(-c3ccc(Cl)cc3)c[nH]c2c1C(=O)C(=O)Nc1ccc(C)cc1")
"37%"
>>> result("COc1cc(OC)c2c(C)c(C(=O)C(=O)N3CCN(c4ccccn4)CC3)[nH]c2c1")
"48%"
>>> result("O=C(C(=O)N1CCN(Cc2ccccc2)CC1)c1c[nH]c2ccccc12")
"21%"
>>> result("COc1cc(OC)c2c(C)c(C(=O)C(=O)N3CCN(Cc4ccccc4)CC3)[nH]c2c1")
"46%"
>>> result("COc1cc(OC)c2c(C)c(C(=O)C(=O)N3CCCCC3)[nH]c2c1")
"17%"
>>> result("COc1cc(OC)c2c(C)c(C)[nH]c2c1C(=O)C(=O)N1CCOCC1")
"7%"
>>> result("COc1cc(OC)c2c(-c3ccc(Cl)cc3)c[nH]c2c1C(=O)C(=O)Nc1ccccc1")
"23%"
>>> result("COc1cc(OC)c2c(-c3ccc(Cl)cc3)c[nH]c2c1C(=O)NNc1ccccc1")
"60%"
>>> result("COc1cc(OC)c2c(-c3ccc(Br)cc3)c(C(=O)C(=O)N3CCN(c4ccccn4)CC3)[nH]c2c1")
"25%"
>>> result("COc1cc(OC)c2c(-c3ccc(Cl)cc3)c(C(=O)N3CCOCC3)[nH]c2c1")
"inactive"
>>> result("O=C(C(=O)N1CCOCC1)c1c[nH]c2ccccc12")
"39%"
>>> result("COc1cc(OC)c2c(-c3ccc(Cl)cc3)c[nH]c2c1C(=O)C(=O)N1CCCC1")
"inactive"
>>> result("COc1cc(OC)c2c(-c3ccc(Br)cc3)c[nH]c2c1C(=O)C(=O)Nc1ccccc1")
"34%"
>>> result("COc1cc(OC)c2c(-c3ccc(Cl)cc3)c[nH]c2c1C(=O)C(=O)N1CCOCC1")
"inactive"
>>> result("O=C(C(=O)N1CCCCC1)c1c[nH]c2ccccc12")
"37%"
>>> result("COc1cc(OC)c2c(C)c(C(=O)C(=O)N3CCCC3)[nH]c2c1")
"44%"
>>> result("COc1cc(OC)c2c(-c3ccc(Br)cc3)c[nH]c2c1C(=O)Nc1ccccc1")
"49%"
>>> result("COc1cc(OC)c2c(-c3ccccc3)c(C(=O)C(=O)N3CCN(c4ccccn4)CC3)oc2c1")
"41%"
>>> result("COc1cc(OC)c2c(C)c(C(=O)C(=O)N3CCOCC3)[nH]c2c1")
"33%"
>>> result("COc1cc(OC)c2c(-c3ccc(Br)cc3)c(C(=O)C(=O)N3CCCC3)[nH]c2c1")
"inactive"
>>> result("COc1cc(OC)c2c(-c3ccccc3)c(C(=O)C(=O)N3CCOCC3)oc2c1")
"29%"
>>> result("COc1cc(OC)c2c(-c3ccc(Br)cc3)c[nH]c2c1C(=O)C(=O)NNc1ccccc1")
"34%"
>>> result("COc1cc(OC)c2c(-c3ccc(Br)cc3)c[nH]c2c1C(=O)C(=O)N1CCN(Cc2ccccc2)CC1")
"8%"
>>> result("CCOC(=O)CNC(=O)C(=O)c1[nH]c2cc(OC)cc(OC)c2c1-c1ccc(Cl)cc1")
"42%"
>>> result("COc1cc(OC)c2c(-c3ccc(Cl)cc3)c[nH]c2c1C(=O)C(=O)N1CCCCC1")
"inactive"
>>> result("COc1cc(OC)c2c(-c3ccc(Cl)cc3)c[nH]c2c1C(=O)C(=O)NNc1ccccc1")
"26%"

###

- Tested on: Bacillus subtilis
- ASSAY NOTES: Growth inhibition of Bacillus subtilis 168 assessed as effect on exponential phase of bacterial growth at 200 uM incubated for 16 hrs
- Type: functional
- MEASUREMENT SETUP: Bacillus subtilis, 168, 16 h; read-out: GI
The compounds listed here are annotated with their inhibition of growth at 200 µM.
ATTRIBUTE MEASURED: inhibition of growth at 200 µM

>>> result("COc1cc(OC)c2c(C)c(C)[nH]c2c1C(=O)C(=O)N1CCCCC1")
"57%"
>>> result("COc1cc(OC)c2c(-c3ccc(Cl)cc3)c(C(=O)C(=O)N3CCOCC3)[nH]c2c1")
"37%"
>>> result("COc1cc(OC)c2c(-c3ccccc3)c(C(=O)C(=O)N3CCOCC3)oc2c1")
"70%"
>>> result("COc1cc(OC)c2c(C)c(C)[nH]c2c1C(=O)C(=O)N1CCOCC1")
"42%"

###

- Tested on: Escherichia coli
- ASSAY NOTES: Growth inhibition of Escherichia coli DH5[alpha] at 200 uM incubated for 16 hrs
- Format: functional
- MEASUREMENT SETUP: read-out: GI
The molecules listed here are annotated with their inhibition of growth at 200 µM.
ATTRIBUTE MEASURED: inhibition of growth at 200 µM (%)

>>> result_number("COc1cc(OC)c2c(-c3ccccc3)c(C(=O)C(=O)N3CCN(c4ccccn4)CC3)oc2c1")
10
>>> result_number("COc1cc(OC)c2c(-c3ccc(Cl)cc3)c[nH]c2c1C(=O)C(=O)Nc1ccc(C)cc1")
20
>>> result_number("COc1cc(OC)c2c(-c3ccc(Cl)cc3)c[nH]c2c1C(=O)C(=O)NNc1ccccc1")
20
